Molecular target: T1, Soluble hFcγRIIB (R & D Systems) (human, UniProt P31994 46-217)
T1 construct: Bought reagent; also called hFcγRIIB fusion protein
T1 sequence (looked up): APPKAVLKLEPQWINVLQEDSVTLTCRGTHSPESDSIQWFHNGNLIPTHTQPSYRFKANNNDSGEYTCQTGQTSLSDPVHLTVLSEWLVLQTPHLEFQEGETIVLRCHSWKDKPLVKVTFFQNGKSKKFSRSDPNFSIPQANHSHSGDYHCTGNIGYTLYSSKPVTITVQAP
Test: SPR (Biacore T100), mAb immobilised on CM5, soluble hFcγRIIB injected, 1:1 model; column headed KA (1/MS)
property: kon (M⁻¹ s⁻¹)

6G08 (antibody, human IgG1, V domains shown, hFcγRIIB mAb (agonistic), human IgG1 (WT); Only VH/VL tied to the clone; also called Antibody clone: 6G08) VH: EVQLLESGGGLVQPGGSLRLSCAASGFTLSSYGISWVRQAPGKGLEWVSGISGSGGNTYYADSVKGRFTISRDNSKNTLYLQMNSLRAEDTAVYYCASSVGAYANDAFDIWGQGTLVTVSS VL: QSVLTQPPSASGTPGQRVTISCTGSSSNIGAGYDVHWYQQLPGTAPKLLIYGDTNRPSGVPDRFSGSKSGTSASLAISGLRSEDEADYYCAAWDDSLNGPVFGGGTKLTVLG
472000
5C05 (antibody, human IgG1, V domains shown, hFcγRIIB mAb, human IgG1 (WT); Only VH/VL tied to the clone; also called Antibody clone: 5C05) VH: EVQLLESGGGLVQPGGSLRLSCAASGFTFSTYGMHWVRQAPGKGLEWVAVISYDGSNKYYADSVKGRFTISRDNSKNTLYLQMNSLRAEDTAVYYCARENFDAFDVWGQGTLVTVSS VL: QSVLTQPPSASGTPGQRVTISCTGSSSNIGAGYDVHWYQQLPGTAPKLLIYSNSQRPSGVPDRFSGSKSGTSASLAISGLRSEDEADYYCAAWDDSLNGQVVFGGGTKLTVLG
802
5C04 (antibody, human IgG1, V domains shown, hFcγRIIB mAb, human IgG1 (WT); Only VH/VL tied to the clone; also called Antibody clone: 5C04) VH: EVQLLESGGGLVQPGGSLRLSCAASGFTFSNYGMHWVRQAPGKGLEWVAVISYDGSNKYYADSVKGRFTISRDNSKNTLYLQMNSLRAEDTAVYYCAREWRDAFDIWGQGTLVTVSS VL: QSVLTQPPSASGTPGQRVTISCTGSSSNIGAGYDVHWYQQLPGTAPKLLIYSDNQRPSGVPDRFSGSKSGTSASLAISGLRSEDEADYYCAAWDDSLSGSWVFGGGTKLTVLG
324000
6G11 (antibody, human IgG1, V domains shown, Lead antagonistic hFcγRIIB mAb, human IgG1 (WT); Only VH/VL tied to the clone; also called Antibody clone: 6G11; WT 6G11) VH: EVQLLESGGGLVQPGGSLRLSCAASGFTFSSYGMHWVRQAPGKGLEWMAVISYDGSNKYYADSVKGRFTISRDNSKNTLYLQMNSLRAEDTAVYYCARELYDAFDIWGQGTLVTVSS VL: QSVLTQPPSASGTPGQRVTISCTGSSSNIGAGYDVHWYQQLPGTAPKLLIYADDHRPSGVPDRFSGSKSGTSASLAISGLRSEDEADYYCASWDDSQRAVIFGGGTKLTVLG
6.9e+06

Where these numbers come from: patent US20170107293A1
